- Tgt: human cannabis CB2 receptor (Homo sapiens)
- Construct: expressed in transfected cells; host or cells: human embryonic kidney (HEK) cells, Semliki Forest Virus system, membrane preparations
- Sequence (P34972 whole entry): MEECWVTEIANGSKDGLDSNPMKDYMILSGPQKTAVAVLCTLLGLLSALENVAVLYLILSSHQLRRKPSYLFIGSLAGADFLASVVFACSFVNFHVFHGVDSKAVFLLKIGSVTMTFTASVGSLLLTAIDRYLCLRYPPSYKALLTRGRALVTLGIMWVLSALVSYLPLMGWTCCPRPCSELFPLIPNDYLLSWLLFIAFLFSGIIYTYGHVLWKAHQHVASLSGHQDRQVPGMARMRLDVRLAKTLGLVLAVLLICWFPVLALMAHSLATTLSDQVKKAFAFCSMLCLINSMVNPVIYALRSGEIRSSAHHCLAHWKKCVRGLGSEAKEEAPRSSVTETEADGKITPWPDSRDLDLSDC
- Experiment description: CB2 receptor affinity, [3H]-CP-55,940 radioligand binding on HEK cell membranes
- Test conditions: Ki calculated from IC50 (Cheng-Prusoff)
Result type: Ki

{"Compound": "O=C(N[C@@H]1CCCC[C@H]1O)c1cnc(OCC(F)(F)F)c(-c2ccc(Cl)cc2)c1 [reference compound]", "Result": "> 10 µM"}
{"Compound": "O=C(N[C@H]1CCCC[C@H]1O)c1cnc(OCC(F)(F)F)c(-c2ccc(Cl)c(Cl)c2)c1", "Result": "> 10 µM"}

I looked up O=C(N[C@@H]1CCCC[C@H]1O)c1cnc(OCC(F)(F)F)c(-c2ccc(Cl)c(Cl)c2)c1 and its Ki for human cannabis CB2 receptor (Homo sapiens) was > 10 µM
